Assay Remarks: NCI Yeast Anticancer Drug Screen. Data for the sgs1 mgt1 strain (AID 161);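 further: 0% = growth of cultures given vehicle only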
Stated Conditions: S. cerevisiae sgs1 mgt1 strain, at 50.0 µM, hits give high values
The panel holds about 79,000 compounds, 15% with a hit somewhere; the sample as a whole holds those more often.
Metric Name: growth inhibition (%)
Hi! Could you send only the number? It should be in %, unit omitted.

Some entries whose results are on file:
Compound | Reported Result
COc1ccc(N2C=Nn3c(nc4sc(C)c(C)c4c3=O)C2)cc1 | 20.9
CN(C)c1ccccc1C1CCCCCC1O (stereo unspecified) | 17.9

Entry "Cc1c(C)c(C)c(CNNC(=S)Nc2ccc(S(=O)(=O)N3CCCCC3)cc2)c(C)c1C" ; growth inhibition = 9.25

Entry "COC(=O)C12c3ccccc3C(c3ccccc31)c1c(N=O)ccc(NO)c12" ; growth inhibition = 99.1

Entry "Cc1ccc(CNC(=S)Nc2ccc(F)cc2)c(C)c1" ; growth inhibition = 30.4

Entry "Cc1ccc(NC(=O)CCSC(=O)Nc2ccc(C)cc2)cc1" ; growth inhibition = -7.05
